Test system: F. hepatica newly excysted juveniles (NEJs), Italian strain
PROTOCOL DETAILS: Ex vivo screen against newly excysted juveniles (NEJs), phenotype and motility scoring
Type: cell-based, Fasciola hepatica
ASSAY SETUP: 10 µM, 24 h; motility score 1 good/normal to 5 no movement
Reported values of Average motility of 25 NEJs with 95% CI, 24 hours for individual entries

Study these solved cases before continuing.
[
  {
    "COMPOUND": "CC1(C)CC[C@]2(NC(=O)N3CCCC3)CC[C@]3(C)C(=CCC4[C@@]5(C)CC[C@H](O)[C@@](C)(CO)C5CC[C@]43C)C2C1 (stereo partly drawn)",
    "MEAS VALUE": "5.00 (5.0;5.0)"
  },
  {
    "COMPOUND": "CC(=O)OC[C@]12CCC(C)(C)CC1C1=CCC3[C@@]4(C)CCC5OC(C)(C)OC[C@@]5(C)C4CC[C@@]3(C)[C@]1(C)CC2 (stereo partly drawn)",
    "MEAS VALUE": "2.96 (2.4;3.4)"
  },
  {
    "COMPOUND": "CC1(C)CC[C@]2(N=C=O)CC[C@]3(C)C(=CCC4[C@@]5(C)CCC6OC(C)(C)OC[C@@]6(C)C5CC[C@]43C)C2C1 (stereo partly drawn)",
    "MEAS VALUE": "2.56 (2;3)"
  },
  {
    "COMPOUND": "COC(=O)[C@@H](NC(=O)N[C@]12CCC(C)(C)CC1C1=CCC3[C@@]4(C)CCC5OC(C)(C)OC[C@@]5(C)C4CC[C@@]3(C)[C@]1(C)CC2)C(C)C (stereo partly drawn)",
    "MEAS VALUE": "3.48 (2.9;3.9)"
  },
  {
    "COMPOUND": "CC1(C)CC[C@]2(C(=O)O)CC[C@]3(C)C(=CC[C@@H]4[C@@]5(C)CC[C@@H]6OC(C)(C)OC[C@@]6(C)[C@@H]5CC[C@]43C)[C@@H]2C1",
    "MEAS VALUE": "5.00 (5.0;5.0)"
  }
]

Documented Average motility of 25 NEJs with 95% CI, 24 hours of CC1(C)CC[C@]2(NC(=O)N3CCOCC3)CC[C@]3(C)C(=CCC4[C@@]5(C)CC[C@@H]6OC(C)(C)OC[C@@]6(C)C5CC[C@]43C)C2C1 (stereo partly drawn) : 5.00 (5.0;5.0)

====

Tested on: adult F. hepatica flukes (Italian strain)
PROTOCOL DETAILS: Ex vivo dose response motility assay on adult liver flukes (Italian strain)
Format: cell-based, Fasciola hepatica
ASSAY SETUP: 13.3 µM, 24 h; adult flukes Italian strain; score 1 to 6
Average motility of 3 parasites treated with 13.3 µM, 24 hours for assorted compounds

Here is how some compounds turned out for Average motility of 3 parasites treated with 13.3 µM, 24 hours.
[
  {
    "COMPOUND": "CC1(C)CC[C@]2(C(=O)O)CC[C@]3(C)C(=CC[C@@H]4[C@@]5(C)CC[C@@H]6OC(C)(C)OC[C@@]6(C)[C@@H]5CC[C@]43C)[C@@H]2C1",
    "MEAS VALUE": "1.33 (0.6;1.9)"
  },
  {
    "COMPOUND": "CSc1nc2cc(Cl)c(Oc3cccc(Cl)c3Cl)cc2[nH]1 [Triclabendazole, reference compound]",
    "MEAS VALUE": "1.00 (1.0;1.0)"
  }
]

Now turn to the next compound.
compound CC1(C)CC[C@]2(NC(=O)N3CCOCC3)CC[C@]3(C)C(=CCC4[C@@]5(C)CC[C@@H]6OC(C)(C)OC[C@@]6(C)C5CC[C@]43C)C2C1 (stereo partly drawn) , Average motility of 3 parasites treated with 13.3 µM, 24 hours observed: 3.66 (3.0;4.3)

====

Tested on: immature F. hepatica flukes (Italian strain)
PROTOCOL DETAILS: Ex vivo motility assay on immature liver flukes (Italian strain), single concentration and dose response
Assay type: cell-based, Fasciola hepatica
ASSAY SETUP: 40 µM, 72 h; immature flukes; score 1 to 5
QUANTITY: Average motility of 4 parasites with 95% CI at 72 hour time point

Solved cases below.
[
  {
    "COMPOUND": "CSc1nc2cc(Cl)c(Oc3cccc(Cl)c3Cl)cc2[nH]1 [Triclabendazole, reference compound]",
    "MEAS VALUE": "5.0 (5.0,5.0)"
  },
  {
    "COMPOUND": "CN1CCN(C(=O)N[C@]23CCC(C)(C)CC2C2=CCC4[C@@]5(C)CC[C@@H]6OC(C)(C)OC[C@@]6(C)C5CC[C@@]4(C)[C@]2(C)CC3)CC1 (stereo partly shown) [MC062]",
    "MEAS VALUE": "5.00 (5.0;5.0)"
  }
]

Query CC1(C)CC[C@]2(NC(=O)N3CCOCC3)CC[C@]3(C)C(=CCC4[C@@]5(C)CC[C@@H]6OC(C)(C)OC[C@@]6(C)C5CC[C@]43C)C2C1 (stereo partly shown) [MC042] yields Average motility of 4 parasites with 95% CI at 72 hour time point of 5.00 (5.0;5.0)

Recorded result, CC1(C)CC[C@]2(C(=O)O)CC[C@]3(C)C(=CC[C@@H]4[C@@]5(C)CC[C@@H]6OC(C)(C)OC[C@@]6(C)[C@@H]5CC[C@]43C)[C@@H]2C1 [MC014] , Average motility of 4 parasites with 95% CI at 72 hour time point: 5.00 (5.0;5.0)

Reported Average motility of 4 parasites with 95% CI at 72 hour time point ( CC1(C)CC[C@]2(NC(=O)N3CCNCC3)CC[C@]3(C)C(=CCC4[C@@]5(C)CCC6OC(C)(C)OC[C@@]6(C)C5CC[C@]43C)C2C1 (stereo partly shown) [MC035] ) = 5.00 (5.0;5.0)

Average motility of 4 parasites with 95% CI at 72 hour time point measured on CC1(C)CC[C@]2(NC(=O)N3CCCC3)CC[C@]3(C)C(=CCC4[C@@]5(C)CC[C@H](O)[C@@](C)(CO)C5CC[C@]43C)C2C1 (stereo partly shown) [MC055] = 5.00 (5.0;5.0)

The compound CC(=O)OC[C@@]1(C)C2CC[C@]3(C)C(CC=C4C5CC(C)(C)CC[C@]5(NC(=O)N5CCCC5)CC[C@]43C)[C@@]2(C)CC[C@@H]1O (stereo partly shown) [MC057] showed Average motility of 4 parasites with 95% CI at 72 hour time point equal to 4.50 (3.5;5.4)

====

System: F. hepatica newly excysted juveniles (NEJs), Italian strain
PROTOCOL DETAILS: Ex vivo screen against newly excysted juveniles (NEJs), phenotype and motility scoring
Type: cell-based, Fasciola hepatica
ASSAY SETUP: 10 µM, 24 h; motility score 1 good/normal to 5 no movement
Here, each record is paired with measured Average motility of 25 NEJs with 95% CI, 24 hours data.

[
  {
    "COMPOUND": "CC1(C)CC[C@]2(NC(=O)N3CCNCC3)CC[C@]3(C)C(=CCC4[C@@]5(C)CCC6OC(C)(C)OC[C@@]6(C)C5CC[C@]43C)C2C1 (stereo partly shown)",
    "MEAS VALUE": "5.00 (5.0;5.0)"
  }
]

For record CCCNC(=O)N[C@]12CCC(C)(C)CC1C1=CCC3[C@@]4(C)CCC5OC(C)(C)OC[C@@]5(C)C4CC[C@@]3(C)[C@]1(C)CC2 (stereo partly shown) the listed Average motility of 25 NEJs with 95% CI, 24 hours is 2.68 (1.9;3.4)

Lab book: Average motility of 25 NEJs with 95% CI, 24 hours of CN(C[C@H](O)[C@@H](O)[C@H](O)[C@H](O)CO)C(=O)N[C@]12CCC(C)(C)CC1C1=CCC3[C@@]4(C)CC[C@@H]5OC(C)(C)OC[C@@]5(C)C4CC[C@@]3(C)[C@]1(C)CC2 (stereo partly shown) noted as 2.84 (2.3;3.3)

Average motility of 25 NEJs with 95% CI, 24 hours measured on CCCCCCCCCCCCCCCC(=O)OC[C@]12CCC(C)(C)CC1C1=CCC3[C@@]4(C)CC[C@H](O)[C@@](C)(CO)C4CC[C@@]3(C)[C@]1(C)CC2 (stereo partly shown) = 2.96 (2.3;3.5)

====

Test system: immature F. hepatica flukes (Italian strain)
PROTOCOL DETAILS: Ex vivo motility assay on immature liver flukes (Italian strain), single concentration and dose response
Format: cell-based, Fasciola hepatica
ASSAY SETUP: 40 µM, 48 h; immature flukes; score 1 to 5
QUANTITY: Average motility of 4 parasites with 95% CI at 48 hour time point

[
  {
    "MOLECULE": "CC1(C)CC[C@]2(NC(=O)N3CCCC3)CC[C@]3(C)C(=CCC4[C@@]5(C)CC[C@H](O)[C@@](C)(CO)C5CC[C@]43C)C2C1 (stereo partly shown)",
    "SUBJECT OF TEST": "immature F. hepatica flukes (Italian strain)",
    "MEAS VALUE": "5.00 (5.0;5.0)"
  }
]

`CC1(C)CC[C@]2(C(=O)O)CC[C@]3(C)C(=CC[C@@H]4[C@@]5(C)CC[C@@H]6OC(C)(C)OC[C@@]6(C)[C@@H]5CC[C@]43C)[C@@H]2C1` tested on immature F. hepatica flukes (Italian strain) gave Average motility of 4 parasites with 95% CI at 48 hour time point: 5.00 (5.0;5.0)

Test item CC1(C)CC[C@]2(NC(=O)N3CCNCC3)CC[C@]3(C)C(=CCC4[C@@]5(C)CCC6OC(C)(C)OC[C@@]6(C)C5CC[C@]43C)C2C1 (stereo partly shown) ; immature F. hepatica flukes (Italian strain); reported Average motility of 4 parasites with 95% CI at 48 hour time point was 5.00 (5.0;5.0)

Field Average motility of 4 parasites with 95% CI at 48 hour time point (immature F. hepatica flukes (Italian strain)), entry CSc1nc2cc(Cl)c(Oc3cccc(Cl)c3Cl)cc2[nH]1 [Triclabendazole, reference compound] : 5.0 (5.0,5.0)

immature F. hepatica flukes (Italian strain) Average motility of 4 parasites with 95% CI at 48 hour time point of CN1CCN(C(=O)N[C@]23CCC(C)(C)CC2C2=CCC4[C@@]5(C)CC[C@@H]6OC(C)(C)OC[C@@]6(C)C5CC[C@@]4(C)[C@]2(C)CC3)CC1 (stereo partly shown) is 5.00 (5.0;5.0)

The value of Average motility of 4 parasites with 95% CI at 48 hour time point recorded for CC(=O)OC[C@@]1(C)C2CC[C@]3(C)C(CC=C4C5CC(C)(C)CC[C@]5(NC(=O)N5CCCC5)CC[C@]43C)[C@@]2(C)CC[C@@H]1O (stereo partly shown) when tested on immature F. hepatica flukes (Italian strain) reads 4.25 (3.3;5.1)

The molecule CC1(C)CC[C@]2(NC(=O)N3CCOCC3)CC[C@]3(C)C(=CCC4[C@@]5(C)CC[C@@H]6OC(C)(C)OC[C@@]6(C)C5CC[C@]43C)C2C1 (stereo partly shown) , tested on immature F. hepatica flukes (Italian strain), showed Average motility of 4 parasites with 95% CI at 48 hour time point of 5.00 (5.0;5.0)
